# Test system: A498 renal
# protocol description: NCI-60 one-dose screen, 48 h (100 = growth as untreated, 0 = no growth, -100 = all killed)
# assay context: 10 µM unless noted
The panel holds about 83,000 compounds, 20% with a hit somewhere; the sample as a whole holds those more often. Activity calls are given as the source filed them. The calls were made as follows: active = growth percent below 10; inactive = the rest.
Listed below: growth values for each entry.
property measured: growth

INSERT INTO measurements (query_smiles, target_system, result) VALUES
  ('CCNc1nc(-c2ccc(Cl)c(OC)c2)c(-c2ccnc(NCCCNS(=O)(=O)c3ccc(Cl)cc3)n2)s1', 'A498 renal', '66.8% (inactive)'),
  ('O=C(CCCCCCN1CC(=O)N2[C@H](c3cc(Br)cs3)c3[nH]c4ccccc4c3C[C@H]2C1=O)NO', 'A498 renal', '58.6% (inactive)'),
  ('CC(C)(C)[Si](C)(C)O[C@H]1C(=O)C=CN2CC=C[C@@H]12', 'A498 renal', '97.9% [100 µM] (inactive)'),
  ('C=CCc1c2c(c(OC)c3ccoc13)C(=O)/C(=C/c1ccccc1OC)O2', 'A498 renal', '46.2% (inactive)'),
  ('COc1ccccc1Nc1nc2c(s1)C1=CC[C@H]3[C@@H]4CC[C@H]([C@H](C)CCCC(C)C)[C@@]4(C)CC[C@@H]3[C@@]1(C)CC2', 'A498 renal', '132% (inactive)');

###

# System: EKVX NSCLC
# protocol description: NCI-60 one-dose screen, 48 h (100 = growth as untreated, 0 = no growth, -100 = all killed)
# assay context: 10 µM unless noted
About 83,000 compounds went through this panel and 20% of them were active in at least one assay; those are over-represented in the sample as a whole.
Hi! Just check whether growth is below 80%. Below gives Y, equal or above gives N.

INSERT INTO assay_data (query_smiles, assigned_category) VALUES
  ('O=C1c2cc(Cl)ccc2S(=O)(=O)c2c(NCCCNCCO)nc3ccccc3c21', 'Y'),
  ('N#Cc1c(NC(=O)c2ccccc2)sc2c1CCC(=O)C2', 'Y'),
  ('O=[N+]([O-])c1ccc(-c2nc(N3CCOCC3)c3c4c(sc3n2)CCCC4)cc1', 'N'),
  ('O=C(CCC(=O)N/N=C/c1ccccc1O)N/N=C/c1ccccc1O', 'Y'),
  ('O=C1N[C@@H]2NC(=[N+]3CCOCC3)N[C@@H]2N1', 'N'),
  ('COc1cc2oc(-c3cccc(NC(=O)c4cccc(Br)c4)c3)cc(=O)c2c(OC)c1OC', 'Y'),
  ('O=S(=O)(NCCNc1cc(-c2c(-c3cccc(O)c3)nc3sccn23)ccn1)c1ccc(C(F)(F)F)cc1', 'Y'),
  ('Cc1cc(=O)[nH]c2c(C#N)cnn12', 'N'),
  ('CCc1ccc(Oc2cn[nH]c2-c2ccc(OCCc3ccc(F)cc3)cc2O)cc1', 'N'),
  ('CSc1nc2sc3c(c2c(=O)n1-c1ccc([N+](=O)[O-])cc1)CCCCC3', 'N');

###

# Lookup of reported growth keyed by entry
# System: RXF 393 renal
# protocol description: NCI-60 one-dose screen, 48 h (100 = growth as untreated, 0 = no growth, -100 = all killed)
# assay context: 10 µM unless noted
Compounds without any hit were thinned out: in the full panel of roughly 83,000, 20% have a hit.
property measured: growth (%)

INSERT INTO assay_data (compound, numeric_result) VALUES
  ('C=CCn1c(SCC(=O)NCc2cc(C)c(O)c(C)c2)nc2ccc(Cl)cc2c1=O', 98.6),
  ('O=C1c2cccc3cccc(c23)C(=O)N1N1C(=O)c2cccc3c(N4CCOCC4)ccc(c23)C1=O', 93.4),
  ('Cc1c(-c2nc3ccc(F)cc3c(=O)[nH]2)c2ccccc2n1C', 14.3),
  ('N#CC1C=CN(CC(N)=O)c2ccc3cccnc3c21 (stereo not given)', 114),
  ('CN1CCN(c2ccc(NC(=O)c3cncnc3Nc3ccc(OCc4ccccn4)c(Cl)c3)cc2)CC1', 27.9);
